Experiment: Whole blood stability assay
Format: in vitro ADME
Conditions: prodrug 50 nM in fresh pooled human whole blood, 37 degrees C.; read-out: t1/2 at 37 degrees C. in human whole blood
outcomeMeasure: half-life at 50 nM (min)
I only need the number, in min, no unit after it.

Here's what some known entries look like.
{"columns": ["compound", "unitOfMeasurement", "half-life at 50 nM"],
 "data": [
  ["O=C(Oc1ccc2c3c1O[C@H]1C(=O)CC[C@@]4(O)[C@@H](C2)N(CC2CC2)CC[C@]314)c1ccc(C(=O)Oc2ccc3c4c2O[C@H]2C(=O)CC[C@@]5(O)[C@@H](C3)N(CC3CC3)CC[C@]425)cc1 [Reference Compound A, NTX-3-terephthaloyl-NTX, reference compound]", "min", 54.7],
  ["O=C(Cc1csc2scc(CC(=O)Oc3ccc4c5c3O[C@H]3C(=O)CC[C@@]6(O)[C@@H](C4)N(CC4CC4)CC[C@]536)c12)Oc1ccc2c3c1O[C@H]1C(=O)CC[C@@]4(O)[C@@H](C2)N(CC2CC2)CC[C@]314", "min", 15.7],
  ["O=C(Cc1cc2sc(CC(=O)Oc3ccc4c5c3O[C@H]3C(=O)CC[C@@]6(O)[C@@H](C4)N(CC4CC4)CC[C@]536)cc2s1)Oc1ccc2c3c1O[C@H]1C(=O)CC[C@@]4(O)[C@@H](C2)N(CC2CC2)CC[C@]314", "min", 6.46],
  ["O=C(CCc1cc2sc(CCC(=O)Oc3ccc4c5c3O[C@H]3C(=O)CC[C@@]6(O)[C@@H](C4)N(CC4CC4)CC[C@]536)cc2s1)Oc1ccc2c3c1O[C@H]1C(=O)CC[C@@]4(O)[C@@H](C2)N(CC2CC2)CC[C@]314", "min", 17.1]
]}

# next compound below
## Task Could you tell me which half-life at 50 nM is on file for O=C(Cc1cc2cc(CC(=O)Oc3ccc4c5c3O[C@H]3C(=O)CC[C@@]6(O)[C@@H](C4)N(CC4CC4)CC[C@]536)sc2s1)Oc1ccc2c3c1O[C@H]1C(=O)CC[C@@]4(O)[C@@H](C2)N(CC2CC2)CC[C@]314 ?
## Result 11

---

Experiment: Whole blood stability assay
Assay type: in vitro ADME
Settings: prodrug 50 nM in fresh pooled human whole blood, 37 degrees C.; read-out: t1/2 at 37 degrees C. in human whole blood
Below: a set of entries, each annotated with reported half-life at 50 nM.
Give a bare numeral; the unit min is implied.

{"columns": ["chemicalString", "experimentalResult"],
 "data": [
  ["O=C(Cc1csc2c(CC(=O)Oc3ccc4c5c3O[C@H]3C(=O)CC[C@@]6(O)[C@@H](C4)N(CC4CC4)CC[C@]536)csc12)Oc1ccc2c3c1O[C@H]1C(=O)CC[C@@]4(O)[C@@H](C2)N(CC2CC2)CC[C@]314", 11]
]}

## Task # input compound: Cc1c(CC(=O)Oc2ccc3c4c2O[C@H]2C(=O)CC[C@@]5(O)[C@@H](C3)N(CC3CC3)CC[C@]425)sc2c(C)c(CC(=O)Oc3ccc4c5c3O[C@H]3C(=O)CC[C@@]6(O)[C@@H](C4)N(CC4CC4)CC[C@]536)sc12 ; wanted: its half-life at 50 nM
## Result 20.7

All values here come from patent US10807995B2.
